system: MCF7; experiment: Antiproliferative activity against human MCF7 cells after 48 hrs by MTT assay; format: functional, cell-based; conditions: MCF7, 48 h
parameter: IC50 (µM)

[A] COc1ccc(C2=NN(c3nc(-c4cccc(OC)c4)cs3)C(c3ccccc3O)C2)cc1 (centres undefined)
[B] COc1ccc(C2=NN(c3nc(-c4ccc(Br)cc4)cs3)C(c3ccccc3O)C2)cc1 (centres undefined)
[C] COc1ccc(C2=NN(c3nc(-c4ccccc4)cs3)C(c3ccccc3O)C2)cc1 (centres undefined)
### Prompt Highest IC50 first, then in falling order down to the smallest. Please, when replying, give the labels in the order that was requested.
### Response B, A, C
(B: 20.1 µM, A: 3.72 µM, C: 2.39 µM)

[1] Oc1ccccc1C1CC(c2ccc(F)cc2)=NN1c1nc(-c2ccc(C(F)(F)F)cc2)cs1 (centres undefined)
[2] COc1ccc(-c2csc(N3N=C(c4ccccc4)CC3c3ccccc3O)n2)cc1 (centres undefined)
[3] Oc1ccccc1C1CC(c2ccc(F)cc2)=NN1c1nc(-c2cccc(Br)c2)cs1 (centres undefined)
### Prompt Kindly order the items shown according to IC50, from the highest value down. Please, when replying, give the labels in the order that was requested.
### Response 3, 1, 2
(3: 8.01 µM, 1: 2.89 µM, 2: 1.03 µM)

[I] Oc1ccccc1C1CC(c2ccccc2)=NN1c1nc(-c2ccc(Br)cc2)cs1 (centres undefined)
[II] Oc1ccccc1C1CC(c2ccc(F)cc2)=NN1c1nc(-c2ccccc2)cs1 (centres undefined)
[III] COc1ccc(C2=NN(c3nc(-c4ccc(C(F)(F)F)cc4)cs3)C(c3ccccc3O)C2)cc1 (centres undefined)
### Prompt Order by IC50, ascending. Please, when replying, give the labels in the order that was requested.
### Response I, II, III

----------
system: HEK-293T; experiment: Cytotoxicity against human 293T cells by MTT assay; type: cell-based
Measured CC50, listed per entry for reference.
All answers are understood in µM, so give the number only.

Record summary for Oc1ccccc1C1CC(c2ccccc2)=NN1c1nc(-c2cccc(Br)c2)cs1 (centres undefined) : reported CC50 = 41.8

Record summary for COc1ccc(C2=NN(c3nc(-c4ccc(C(F)(F)F)cc4)cs3)C(c3ccccc3O)C2)cc1 (centres undefined) : reported CC50 = 45.4

Record summary for Cc1ccc(-c2cc(C(F)(F)F)nn2-c2ccc(S(N)(=O)=O)cc2)cc1 : reported CC50 = 55.8

Record summary for Oc1ccccc1C1CC(c2ccc(F)cc2)=NN1c1nc(-c2ccc(C(F)(F)F)cc2)cs1 (centres undefined) : reported CC50 = 34.8

Record summary for COc1ccc(C2=NN(c3nc(-c4cccc(Br)c4)cs3)C(c3ccccc3O)C2)cc1 (centres undefined) : reported CC50 = 24.5

----------
target: Neutrophil collagenase (Homo sapiens); test: Inhibition of recombinant human MMP-8 using Mca-PLGL-Dpa-AR-NH2 as substrate preincubated for 10 mins followed by substrate addition and measured for 5 mins by fluorescence assay
Sequence (P22894 whole entry): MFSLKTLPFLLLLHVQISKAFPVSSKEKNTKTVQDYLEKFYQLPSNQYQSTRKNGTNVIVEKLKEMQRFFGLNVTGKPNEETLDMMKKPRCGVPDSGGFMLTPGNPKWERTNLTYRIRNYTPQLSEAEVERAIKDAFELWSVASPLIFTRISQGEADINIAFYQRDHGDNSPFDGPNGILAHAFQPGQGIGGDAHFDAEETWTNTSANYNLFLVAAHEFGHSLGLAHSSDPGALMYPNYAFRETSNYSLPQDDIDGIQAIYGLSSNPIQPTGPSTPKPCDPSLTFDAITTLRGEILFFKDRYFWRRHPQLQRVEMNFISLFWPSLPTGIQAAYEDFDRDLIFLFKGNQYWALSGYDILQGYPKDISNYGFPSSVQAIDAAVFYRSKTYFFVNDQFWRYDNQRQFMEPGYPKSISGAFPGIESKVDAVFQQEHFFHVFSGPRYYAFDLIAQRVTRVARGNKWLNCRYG
parameter: IC50 (µM)

Previously resolved entries follow.
[
  {
    "compound": "COc1ccc(-c2csc(N3N=C(c4ccc(F)cc4)CC3c3ccccc3O)n2)cc1 (stereo not given)",
    "IC50 (µM)": 28.2
  },
  {
    "compound": "COc1ccc(C2=NN(c3nc(-c4cccc(Br)c4)cs3)C(c3ccccc3O)C2)cc1 (stereo not given)",
    "IC50 (µM)": 48.1
  }
]

[1] COc1ccc(C2=NN(c3nc(-c4ccc(OC)cc4)cs3)C(c3ccccc3O)C2)cc1 (stereo not given)
[2] Oc1ccccc1C1CC(c2ccc(F)cc2)=NN1c1nc(-c2ccc(C(F)(F)F)cc2)cs1 (stereo not given)
[3] COc1cccc(-c2csc(N3N=C(c4ccc(F)cc4)CC3c3ccccc3O)n2)c1 (stereo not given)
### Prompt Kindly order the items shown according to IC50, from the highest value down. Please, when replying, give the labels in the order that was requested.
### Response 2, 1, 3

Origin of the recorded values: ChEMBL document CHEMBL4325847
